- protocol: self-splicing fitness, log relative to wild type (ln ratio); higher = more splicing; Tetrahymena group I intron in knt gene, E. coli kanamycin selection, DiMSum; sequences stand for … in CUCUCU…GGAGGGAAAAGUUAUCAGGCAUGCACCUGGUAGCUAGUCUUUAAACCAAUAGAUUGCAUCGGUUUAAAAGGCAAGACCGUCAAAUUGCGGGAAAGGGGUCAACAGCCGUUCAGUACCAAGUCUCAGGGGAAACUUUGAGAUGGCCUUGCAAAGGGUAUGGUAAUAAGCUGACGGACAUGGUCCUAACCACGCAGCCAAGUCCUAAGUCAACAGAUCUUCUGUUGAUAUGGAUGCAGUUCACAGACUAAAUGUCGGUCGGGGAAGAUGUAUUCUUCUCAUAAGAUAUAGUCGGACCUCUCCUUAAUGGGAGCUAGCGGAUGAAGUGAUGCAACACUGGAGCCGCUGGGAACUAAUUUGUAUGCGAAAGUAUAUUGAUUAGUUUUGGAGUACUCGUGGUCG;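 also: selection with 25 µg/mL kanamycin versus none on LB agar overnight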
- recorded_conditions: 37 °C
endpoint_name: self-splicing fitness (ln)
Please give the numeric answer without any surrounding text.

These recorded examples may help you get a feel for the data.
UAGAAGCAAUAUUACGCGAC = -2.08
UACUAGCAAUAUUACGUGUA = -0.943
AGCCAGCAAUAUUACGAAGU = -1.75
GGGUAGCAAUAUUACGGUUA = -0.344

## Task Look up and report measured self-splicing fitness (ln) for this entry: `CAAAAGCAAUAUUACGAUCA`
## Result -1.25

## Task Look up and report measured self-splicing fitness (ln) for this entry: `GAGCAGCAAUAUUACGUGUU`
## Result -2.81

###

Reported self-splicing fitness (ln) values for the following sequences.
- protocol: self-splicing fitness, log relative to wild type (ln ratio); higher = more splicing; Tetrahymena group I intron in knt gene, E. coli kanamycin selection, DiMSum; sequences stand for … in CUCUCU…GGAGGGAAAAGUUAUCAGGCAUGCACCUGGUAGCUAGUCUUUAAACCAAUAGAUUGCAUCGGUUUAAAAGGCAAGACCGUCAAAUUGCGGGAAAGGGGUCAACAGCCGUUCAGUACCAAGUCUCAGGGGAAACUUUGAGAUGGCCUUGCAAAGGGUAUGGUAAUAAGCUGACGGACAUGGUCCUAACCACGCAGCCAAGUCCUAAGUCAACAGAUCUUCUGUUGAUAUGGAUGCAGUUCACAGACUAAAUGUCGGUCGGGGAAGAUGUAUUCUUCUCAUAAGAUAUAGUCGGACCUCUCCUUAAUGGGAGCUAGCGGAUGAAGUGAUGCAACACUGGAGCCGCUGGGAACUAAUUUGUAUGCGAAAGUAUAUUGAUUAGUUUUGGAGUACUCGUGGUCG
- recorded_conditions: 30 °C
Please give the numeric answer without any surrounding text.

CAAAAGCAAUAUUACGUUAG = -1.57
CGAUAGCAAUAUUACGGACC = -1.78
UCCAAGCAAUAUUACGGGGA = -2.58

## Task Look up and report measured self-splicing fitness (ln) for this entry: `GGCGAGCAAUAUUACGAUAG`
## Result -1.89

## Task Look up and report measured self-splicing fitness (ln) for this entry: `GCUAAGCAAUAUUACGAGCG`
## Result -1.7

## Task Look up and report measured self-splicing fitness (ln) for this entry: `UCGGAGCAAUAUUACGUAAC`
## Result -3.51

## Task Look up and report measured self-splicing fitness (ln) for this entry: `CAGAAGCAAUAUUACGGCUU`
## Result -3.46

## Task Look up and report measured self-splicing fitness (ln) for this entry: `UCUCAGCAAUAUUACGGACG`
## Result -1.84

## Task Look up and report measured self-splicing fitness (ln) for this entry: `UGCCAGCAAUAUUACGUAAA`
## Result -1.24

## Task Look up and report measured self-splicing fitness (ln) for this entry: `ACGUAGCAAUAUUACGAACG`
## Result -1

## Task Look up and report measured self-splicing fitness (ln) for this entry: `UAUAAGCAAUAUUACGGAUC`
## Result -2.57

## Task Look up and report measured self-splicing fitness (ln) for this entry: `CCCUAGCAAUAUUACGCGUU`
## Result -3.65

## Task Look up and report measured self-splicing fitness (ln) for this entry: `UCCAAGCAAUAUUACGUUAU`
## Result -2.78

## Task Look up and report measured self-splicing fitness (ln) for this entry: `AUUGAGCAAUAUUACGCUGG`
## Result -2.76

## Task Look up and report measured self-splicing fitness (ln) for this entry: `UUAAAGCAAUAUUACGUAUG`
## Result -0.495

###

- protocol: self-splicing fitness, log relative to wild type (ln ratio); higher = more splicing; Tetrahymena group I intron in knt gene, E. coli kanamycin selection, DiMSum; sequences stand for … in CUCUCU…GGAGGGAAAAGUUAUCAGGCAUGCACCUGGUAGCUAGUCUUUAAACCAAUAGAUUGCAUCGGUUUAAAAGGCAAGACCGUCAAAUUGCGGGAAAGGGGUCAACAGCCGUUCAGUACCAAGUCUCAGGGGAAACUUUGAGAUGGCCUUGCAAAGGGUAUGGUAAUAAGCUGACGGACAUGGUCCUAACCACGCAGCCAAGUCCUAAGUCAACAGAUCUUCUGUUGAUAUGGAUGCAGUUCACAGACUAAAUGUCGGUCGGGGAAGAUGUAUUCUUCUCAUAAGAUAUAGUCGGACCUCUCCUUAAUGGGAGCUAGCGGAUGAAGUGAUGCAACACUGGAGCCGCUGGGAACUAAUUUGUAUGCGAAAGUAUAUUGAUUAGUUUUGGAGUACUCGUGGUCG
- recorded_conditions: 30 °C
Label rule, in plain words: self-splicing fitness (ln) of -3 and up is MET, under -3 is NOT MET.

ACCAAGCAAUAUUACGGACC = MET
UUUCAGCAAUAUUACGGUUG = MET
UGUUAGCAAUAUUACGACGC = MET
ACGCAGCAAUAUUACGGAUC = MET
CGCUAGCAAUAUUACGGGGU = NOT MET

## Task I'd appreciate it if you could say whether `CGCGAGCAAUAUUACGGUAU` has self-splicing fitness (ln) at least equal to -3.
## Result NOT MET

## Task I'd appreciate it if you could say whether `ACGUAGCAAUAUUACGGGGU` has self-splicing fitness (ln) at least equal to -3.
## Result NOT MET

## Task I'd appreciate it if you could say whether `GGGCAGCAAUAUUACGACUA` has self-splicing fitness (ln) at least equal to -3.
## Result MET

## Task I'd appreciate it if you could say whether `CCUCAGCAAUAUUACGAUUA` has self-splicing fitness (ln) at least equal to -3.
## Result MET

###

Reported self-splicing fitness (ln) values for the following sequences.
- protocol: self-splicing fitness, log relative to wild type (ln ratio); higher = more splicing; Tetrahymena group I intron in knt gene, E. coli kanamycin selection, DiMSum; sequences stand for … in CUCUCU…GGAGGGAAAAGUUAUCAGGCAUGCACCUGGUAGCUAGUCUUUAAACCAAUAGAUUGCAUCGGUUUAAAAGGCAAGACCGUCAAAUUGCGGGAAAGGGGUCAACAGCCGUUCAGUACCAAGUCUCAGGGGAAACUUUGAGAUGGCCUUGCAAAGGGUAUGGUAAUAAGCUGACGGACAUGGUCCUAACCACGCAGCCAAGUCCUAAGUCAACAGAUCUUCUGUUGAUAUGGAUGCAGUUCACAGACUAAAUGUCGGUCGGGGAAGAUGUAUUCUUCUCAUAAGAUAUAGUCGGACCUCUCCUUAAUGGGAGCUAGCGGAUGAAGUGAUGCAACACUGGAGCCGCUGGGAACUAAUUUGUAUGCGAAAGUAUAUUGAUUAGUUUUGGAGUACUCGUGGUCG
- recorded_conditions: 30 °C
Please give the numeric answer without any surrounding text.

These recorded examples may help you get a feel for the data.
UUCAAGCAAUAUUACGUAUA = -1.48
CGACAGCAAUAUUACGCGCG = -2.61
GUGAAGCAAUAUUACGUGAC = -2.77

## Task Look up and report measured self-splicing fitness (ln) for this entry: `GAACAGCAAUAUUACGAACA`
## Result -0.908

## Task Look up and report measured self-splicing fitness (ln) for this entry: `GCGGAGCAAUAUUACGACCU`
## Result -0.927

## Task Look up and report measured self-splicing fitness (ln) for this entry: `CGUGAGCAAUAUUACGACAC`
## Result -2.5

## Task Look up and report measured self-splicing fitness (ln) for this entry: `GACCAGCAAUAUUACGUAUU`
## Result -0.471

## Task Look up and report measured self-splicing fitness (ln) for this entry: `GCGAAGCAAUAUUACGCUGA`
## Result -0.605

## Task Look up and report measured self-splicing fitness (ln) for this entry: `UAAUAGCAAUAUUACGGGCC`
## Result -3.78

## Task Look up and report measured self-splicing fitness (ln) for this entry: `GCAAAGCAAUAUUACGUAGC`
## Result -4.47

## Task Look up and report measured self-splicing fitness (ln) for this entry: `ACAUAGCAAUAUUACGUGAG`
## Result -0.863

## Task Look up and report measured self-splicing fitness (ln) for this entry: `ACACAGCAAUAUUACGCUAC`
## Result -3.73

## Task Look up and report measured self-splicing fitness (ln) for this entry: `AUCCAGCAAUAUUACGAGAU`
## Result -3.77

## Task Look up and report measured self-splicing fitness (ln) for this entry: `GUUUAGCAAUAUUACGCGAG`
## Result -1.48

## Task Look up and report measured self-splicing fitness (ln) for this entry: `CUGCAGCAAUAUUACGUUGC`
## Result -3.71

## Task Look up and report measured self-splicing fitness (ln) for this entry: `GUGAAGCAAUAUUACGAGAA`
## Result -1.97

## Task Look up and report measured self-splicing fitness (ln) for this entry: `UGGCAGCAAUAUUACGCAAG`
## Result -3.83

## Task Look up and report measured self-splicing fitness (ln) for this entry: `CAGCAGCAAUAUUACGUAGG`
## Result -0.47

## Task Look up and report measured self-splicing fitness (ln) for this entry: `CGUAAGCAAUAUUACGGCGA`
## Result -2.31

## Task Look up and report measured self-splicing fitness (ln) for this entry: `UAUAAGCAAUAUUACGCGCU`
## Result -0.854

## Task Look up and report measured self-splicing fitness (ln) for this entry: `UGUCAGCAAUAUUACGGCCC`
## Result -1.78
